- TARGET_OR_TEST_SYSTEM: T1, hCD38 Fc fusion protein (aa 45-300) (human, UniProt P28907 45-300)
- T1 construct: produced in HEK293; also called full-length hCD38 Fc-fusion protein; soluble CD38-Fc
- T1 sequence (P28907 45-300 limits assumed): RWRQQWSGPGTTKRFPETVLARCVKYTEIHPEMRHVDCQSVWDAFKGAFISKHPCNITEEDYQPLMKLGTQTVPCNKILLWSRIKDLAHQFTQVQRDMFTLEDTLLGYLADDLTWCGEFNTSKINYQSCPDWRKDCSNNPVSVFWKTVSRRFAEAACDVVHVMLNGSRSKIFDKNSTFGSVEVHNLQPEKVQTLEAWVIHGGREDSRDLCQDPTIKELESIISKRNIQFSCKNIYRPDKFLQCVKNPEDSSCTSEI
- ASSAY_SUMMARY: SPR (Biacore 3000), Fab over directly immobilized CD38-Fc fusion protein; mean of at least 2 determinations
ATTRIBUTE_MEASURED: pKd
In simple prose, pKd is minus the logarithm base ten of a concentration in moles per litre.

• MOR03077 Fab (Fab, V domains shown, also called antibody no) VH: QVQLVQSGAEVKKPGASVKVSCKASGYTFTSYSINWVRQAPGQGLEWMGYIDPNRGNTNYAQKFQGRVTMTRDTSISTAYMELSSLRSEDTAVYYCAREYIYFIHGMLDFWGQGTLVTVSS VL: DIVMTQSPLSLPVTPGEPASISCRSSQSLLFIDGNNYLNWYLQKPGQSPQLLIYLGSNRASGVPDRFSGSGSGTDFTLKISRVEAEDVGVYYCQQYSSKSATFGQGTKVEIKR = 7.25
• MOR03080 Fab (Fab, V domains shown, also called antibody no) VH: QVQLVESGGGLVQPGGSLRLSCAASGFTFSSYGMHWVRQAPGKGLEWVSNIYSDGSNTFYADSVKGRFTISRDNSKNTLYLQMNSLRAEDTAVYYCARNMYRWPFHYFFDYWGQGTLVTVSS VL: DIELTQPPSVSVAPGQTARISCSGDNIGNKYVSWYQQKPGQAPVVVIYGDNNRPSGIPERFSGSNSGNTATLTISGTQAEDEADYYCSSYDSSYFVFGGGTKLTVLG = 7.56

Tell me its pKd given MOR03100 Fab (Fab, V domains shown, also called LAC 3100; antibody no; 3100) VH: QVQLVESGGGLVQPGGSLRLSCAASGFTFSSNGMSWVRQAPGKGLEWVSNISYLSSSTYYADSVKGRFTISRDNSKNTLYLQMNSLRAEDTAVYYCARFYGYFNYADVWGQGTLVTVSS VL: DIELTQPPSVSVAPGQTARISCSGDNIGHYYASWYQQKPGQAPVLVIYRDNDRPSGIPERFSGSNSGNTATLTISGTQAEDEADYYCQSYDYLHDFVFGGGTKLTVLG as the entry. 8.00
